Ref: paper PMC5578202

experiment: Simulated in vitro digestion (oral, gastric, intestinal): recovery percentage / bioaccessibility; assay type: in vitro ADME; settings: simulated in vitro digestion; human-simulated digestion, gastric phase, pH 2, pepsin; read-out: Recovery percentage after gastric digestion phase
READOUT_KIND: recovery at 1 h (%)
Report only the number, with the unit % understood.

Request: // query recovery at 1 h value for entry COc1cc(-c2oc3cc(O)cc(O)c3c(=O)c2O)ccc1O
Response: 49

---

experiment: Simulated in vitro digestion (oral, gastric, intestinal): recovery percentage / bioaccessibility; format: in vitro ADME; conditions: human-simulated digestion, oral phase, pH 6.9, α-amylase; read-out: Recovery percentage after oral digestion phase
READOUT_KIND: recovery at 10 min, 0.5 mg/mL (%)
Report only the number, with the unit % understood.

Request: // query recovery at 10 min, 0.5 mg/mL value for entry COc1cc(-c2oc3cc(O)cc(O)c3c(=O)c2O)ccc1O [I, isorhamnetin]
Response: 35

---

assay: Permeability across Caco-2/HT-29 (75:25) co-culture monolayer; format: in vitro ADME, human; conditions: human, pH 7.4; Caco-2/HT-29 co-culture, digested samples; read-out: Apparent permeability coefficient apical to basolateral, Papp(AP-BL)
READOUT_KIND: Papp A→B at 120 min (×10⁻⁶ cm/s)
Report only the number, with the unit ×10⁻⁶ cm/s understood.

Request: // query Papp A→B at 120 min value for entry COc1cc(-c2oc3cc(O)cc(O)c3c(=O)c2O)ccc1O
Response: 4.74
